Would you mind telling me the reported IC50 of each entry?
system: B16; assay: Antiproliferative activity against mouse B16 cells after 3 days by alamar blue assay; type: functional, cell-based; conditions: B16, 72 h

- COc1cc(O)c2c(=O)c3cccc(O)c3n(C)c2c1CC=C(C)C: > 40 µM

Give me IC50 for each of these compounds, listed below.
1. COc1cc(O)c2c(=O)c3ccc(OC)c(O)c3n(C)c2c1
2. Cn1c2ccccc2c(=O)c2c(O)cc3c(c21)C=CC(C)(C)O3
3. CC(C)=CCc1c(O)cc(O)c2c(=O)c3ccccc3n(C)c12
4. CC(C)=CCc1c2c(c3c(c1O)c(=O)c1cccc(O)c1n3C)C=CC(C)(C)O2

OUTPUT:
1. > 40 µM
2. > 40 µM
3. > 40 µM
4. 8.04 µM

* * *

test system: B16; assay: Antiproliferative activity against mouse B16 cells after 3 days by alamar blue assay; format: functional, cell-based; conditions: B16, 72 h
pIC50: −log10 of the molar value.
Would you mind telling me the reported pIC50 of each entry?

Worked cases, answers included:
- CC1(C)C=Cc2c(cc(O)c3c(=O)c4ccccc4[nH]c23)O1: 5.30
- CC(C)=CCc1c2c(c3c(c1O)c(=O)c1ccccc1n3C)C=CC(C)(C)O2: < 4.40
- COc1c(O)ccc2c(=O)c3c(O)cc4c(c3n(C)c12)C=CC(C)(C)O4 [CITRACRIDONE I]: < 4.40
- Cn1c2c(O)cccc2c(=O)c2c(O)cc3c(c21)C=CC(C)(C)O3: < 4.40

Give me pIC50 for each of these compounds, listed below.
1. COc1cc(O)c2c(=O)c3ccc(O)c(OC)c3n(C)c2c1 [CITPRESSINE II]
2. CC(C)=CCc1c2c(c3[nH]c4c(O)cccc4c(=O)c3c1O)C=CC(C)(C)O2 [ATALAPHYLLININE]

OUTPUT:
1: < 4.40; 2: 5.33

Give me pIC50 for each of these compounds, listed below.
1. CC1(C)C=Cc2c(cc(O)c3c(=O)c4cccc(O)c4[nH]c23)O1 [ATOLAPHYLLIDINE]
2. COc1cc(O)c2c(=O)c3cccc(O)c3n(C)c2c1OC [CITRUSININE-I]
3. COc1cc2c(c3[nH]c4ccccc4c(=O)c13)C=CC(C)(C)O2
4. COc1ccc2c(=O)c3c(O)cc4c(c3n(C)c2c1OC)C=CC(C)(C)O4 [CITRACRIDONE II]

OUTPUT:
1. 5.25
2. < 4.40
3. < 4.40
4. < 4.40
